Tested on: barnyardgrass (Echinochloa crus-galli)
EXPERIMENT: Test A pre-/postemergence plant response
Format: in vivo
CONDITION_SUMMARY: Preemergence, 500 g ai/ha; 0 to 100 scale, 0 = no effect, 100 = complete control
Each entry below lists one item and its recorded Plant response rating, Barnyardgrass value.

>  <MOLECULE>
Cc1cc(-n2c(-c3cccc(F)c3)ncc(C(=O)C3=C(O)CCCC3=O)c2=O)ccc1F

>  <Plant response rating, Barnyardgrass>
80

$$$$
>  <MOLECULE>
O=C(C1=C(O)C2CCC(C2)C1=O)c1cnc(-c2ccccc2)n(C2CCCCCC2)c1=O (stereo not shown)

>  <Plant response rating, Barnyardgrass>
20

$$$$
>  <MOLECULE>
COCCn1c(-c2cccc(F)c2)ncc(C(=O)C2=C(O)C3CCC(C3)C2=O)c1=O (stereo not shown)

>  <Plant response rating, Barnyardgrass>
100

$$$$
>  <MOLECULE>
CCc1ccc(-n2c(-c3ccccc3)ncc(C(=O)C3=C(O)CCCC3=O)c2=O)cc1

>  <Plant response rating, Barnyardgrass>
100

$$$$
>  <MOLECULE>
O=C(C1=C(O)C2CCC(C2)C1=O)c1cnc(-c2ccsc2)n(CC2CCCO2)c1=O (stereo not shown)

>  <Plant response rating, Barnyardgrass>
70

$$$$
>  <MOLECULE>
COc1ccc(-n2c(-c3ccccc3)ncc(C(=O)C3=C(O)CCCC3=O)c2=O)cc1OC

>  <Plant response rating, Barnyardgrass>
100

$$$$
>  <MOLECULE>
COCCCn1c(-c2cccc(F)c2)ncc(C(=O)C2=C(O)C3CCC(C3)C2=O)c1=O (stereo not shown)

>  <Plant response rating, Barnyardgrass>
100

$$$$
>  <MOLECULE>
O=C1CCCC(O)=C1C(=O)c1cnc(-c2cc(F)cc(F)c2)n(-c2ccccc2)c1=O

>  <Plant response rating, Barnyardgrass>
90

$$$$
>  <MOLECULE>
O=C1CCCC(O)=C1C(=O)c1cnc(-c2cc(F)cc(F)c2)n(C2CCCCC2)c1=O

>  <Plant response rating, Barnyardgrass>
100

$$$$
>  <MOLECULE>
Cc1ccc(C)c(-n2c(-c3ccccc3)ncc(C(=O)c3cnoc3C3CC3)c2=O)c1

>  <Plant response rating, Barnyardgrass>
60

$$$$
>  <MOLECULE>
CCCCn1c(-c2cccc(F)c2)ncc(C(=O)C2=C(O)C3CCC(C3)C2=O)c1=O (stereo not shown)

>  <Plant response rating, Barnyardgrass>
90

$$$$
>  <MOLECULE>
Cc1cccc(-c2ncc(C(=O)C3=C(O)CCCC3=O)c(=O)n2C2CCCCC2)c1

>  <Plant response rating, Barnyardgrass>
50

$$$$
>  <MOLECULE>
CCn1c(Cc2ccccc2)ncc(C(=O)C2=C(O)CCCC2=O)c1=O

>  <Plant response rating, Barnyardgrass>
0

$$$$

Values were extracted from patent US8952024B2.
